- measuredOn: EGFR L858R/T790M/C797S (Homo sapiens, UniProt P00533, C797S/L858R/T790M)
- Sequence (P00533 25-1210 T790M/C797S/L858R): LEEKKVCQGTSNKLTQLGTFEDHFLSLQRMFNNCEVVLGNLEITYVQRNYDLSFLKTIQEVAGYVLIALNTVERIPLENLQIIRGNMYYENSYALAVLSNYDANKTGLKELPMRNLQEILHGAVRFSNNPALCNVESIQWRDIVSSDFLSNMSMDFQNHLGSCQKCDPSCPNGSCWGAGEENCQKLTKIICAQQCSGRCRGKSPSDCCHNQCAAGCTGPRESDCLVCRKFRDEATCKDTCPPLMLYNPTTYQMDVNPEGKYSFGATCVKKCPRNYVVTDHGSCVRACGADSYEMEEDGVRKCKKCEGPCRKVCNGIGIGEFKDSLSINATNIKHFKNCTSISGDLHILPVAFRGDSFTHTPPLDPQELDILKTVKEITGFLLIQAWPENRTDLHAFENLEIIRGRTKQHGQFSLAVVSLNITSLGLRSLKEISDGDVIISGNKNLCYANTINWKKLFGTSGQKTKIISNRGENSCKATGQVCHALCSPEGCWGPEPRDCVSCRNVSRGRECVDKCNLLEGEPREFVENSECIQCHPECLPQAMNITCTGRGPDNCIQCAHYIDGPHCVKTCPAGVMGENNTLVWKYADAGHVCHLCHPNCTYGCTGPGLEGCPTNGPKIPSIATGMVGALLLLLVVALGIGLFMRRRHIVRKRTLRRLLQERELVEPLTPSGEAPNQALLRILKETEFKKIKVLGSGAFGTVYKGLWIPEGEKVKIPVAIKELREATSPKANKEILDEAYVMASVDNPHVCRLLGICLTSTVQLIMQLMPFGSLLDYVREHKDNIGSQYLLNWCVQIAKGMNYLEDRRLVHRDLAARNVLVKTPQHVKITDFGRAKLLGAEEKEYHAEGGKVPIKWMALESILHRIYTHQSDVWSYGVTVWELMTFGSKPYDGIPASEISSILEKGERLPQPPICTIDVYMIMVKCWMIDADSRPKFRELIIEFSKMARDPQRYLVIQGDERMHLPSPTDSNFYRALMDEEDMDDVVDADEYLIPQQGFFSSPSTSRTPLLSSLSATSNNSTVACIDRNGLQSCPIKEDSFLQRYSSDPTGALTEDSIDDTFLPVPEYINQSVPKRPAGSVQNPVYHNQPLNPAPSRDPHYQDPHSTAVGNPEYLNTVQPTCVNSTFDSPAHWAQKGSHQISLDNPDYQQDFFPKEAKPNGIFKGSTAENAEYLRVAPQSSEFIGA
- testDescription: Biochemical EGFR kinase assay (Lance Ultra TR-FRET), triple mutant L858R/T790M/C797S
- testParameters: IC50 L858R/T790M/C797S (nM) 100 μM ATP, 100 μM ATP
outcomeMeasure: IC50 (nM)
Reply numerically in nM, unit not repeated.

Sample answers from the record:
{"smilesInput": "CN(C)S(=O)(=O)n1cc(-c2nccc(Nc3cc(N[C@H]4CC[C@@](C)(O)CC4)c(-c4ccn(C(F)F)n4)cn3)n2)cn1", "measuredOn": "EGFR L858R/T790M/C797S (Homo sapiens, UniProt P00533, C797S/L858R/T790M)", "IC50, nM": 0.2}
{"smilesInput": "CC(C)(O)[C@H]1CC[C@@H](Nc2cc(Nc3ccnc(-c4cnn(S(=O)(=O)C5CC5)c4)n3)ncc2-c2ccn(CC(F)F)n2)CC1", "measuredOn": "EGFR L858R/T790M/C797S (Homo sapiens, UniProt P00533, C797S/L858R/T790M)", "IC50, nM": 1}

Please look at the following compound next.
Task: Given `O=S(=O)(C1CC1)n1cc(-c2nccc(Nc3cc(N[C@H]4CC[C@@H](CN5CCC5)CC4)c(-c4ccn(C(F)F)n4)cn3)n2)cn1` , report its IC50 on EGFR L858R/T790M/C797S (Homo sapiens, UniProt P00533, C797S/L858R/T790M).
Result: 0.1
